B1: POU domain, class 2, transcription factor 1, residues 285 to 354; numbered along this chain, P14859 (parent)
chain: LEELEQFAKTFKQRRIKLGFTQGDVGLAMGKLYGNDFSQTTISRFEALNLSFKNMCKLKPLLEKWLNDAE

Variants of: B1
Experiment: abundance fitness (aPCA) (normalised: wild type 0, dead -1); higher = more abundant; growth selection in yeast, the domain comes from the species named
Details: Homo sapiens
Would you mind telling me the reported abundance fitness of each entry?
Form: value (number only, do not type unit).

Lab note: L50A gave abundance fitness of -0.121

Documented abundance fitness of A47N : 0.033

Lab note: measured abundance fitness of M29L was -0.016

Entry G30P , abundance fitness reported as -0.209

Given item G23M , the value recorded as its abundance fitness is -0.023

The value of abundance fitness measured for the variant S51Q turned out to be -0.09

In plain terms, E3I has a documented abundance fitness of -0.117

V25F has a reported abundance fitness of -0.372

Per the record, G34H has abundance fitness of -0.097

Per the records, this variant ( E5F ) has abundance fitness equal to -0.13

The variant listed as F37Y shows abundance fitness equal to -0.135

abundance fitness recorded for this variant, K12V , is -0.05

Lab book: abundance fitness of A8H noted as -0.499

// abundance fitness lookup, variant = L58Q , result: -0.199

Looking up P60D , I see its abundance fitness listed as -0.042

# variant G34L ; its abundance fitness = -0.151

Lab note: D36Q gave abundance fitness of -0.034

Kindly note the recorded abundance fitness for F20D , which is -0.706

Record Q22V , field abundance fitness: 0

Entry Q6V ; abundance fitness = -0.076

Entry K17D ; abundance fitness = 0.001

// abundance fitness value for Q39A : 0.015
